Data provenance is ChEMBL document CHEMBL5506042.

- Protocol details: Fraction unbound in human plasma at 1 uM by rapid equilibrium dialysis based LC-MS/MS analysis
- Assay type: ADME, cell-free
Measurement label: fraction unbound at 1 µM
// return a plain number; no unit text

Query string: What does the data say about its fraction unbound at 1 µM? Entry: CC(C)c1ccc([C@](O)(c2cccc(-c3noc(C(C)(C)O)n3)c2)C2(C)CN(C)C2)cc1
Result string: 0.35

* * *

- Protocol details: AUC in Beagle dog at 3 mg/kg, po
- Type: ADME, organism-based, Canis lupus familiaris
- Settings: in vivo
Measurement label: AUC (ng·h/mL)
Quick note: give the figure in ng·h/mL, leave out the unit.

Query string: What does the data say about its AUC? Entry: CC(C)c1ccc([C@](O)(c2cccc(-c3noc(C(C)(C)O)n3)c2)C2(C)CN(C)C2)cc1
Result string: 332
